Where do these numbers come from? They come from ChEMBL document CHEMBL3779894.

System: Human immunodeficiency virus 1
Experiment: Selectivity index, ratio of melting temperature for HIV-1 29-mer TAR RNA to HIV-1 cTAR DNA
Exercise: state measured Ratio for each of the compounds provided.
The reply should be a number, written without any unit.

Request body: readout Ratio, system Human immunodeficiency virus 1, query NCCCC(N)C(=O)NCC(=O)Nc1ccc2c(c1)C(=O)c1ccc(NC(=O)CNC(=O)C(N)CCCN)cc1C2=O (stereo unspecified) . Return the value. 0.72

Give Human immunodeficiency virus 1 Ratio for C[C@H](NC(=O)C(N)CCCCN)C(=O)Nc1ccc2c(c1)C(=O)c1ccc(NC(=O)[C@H](C)NC(=O)C(N)CCCCN)cc1C2=O (stereo partly specified) 0.56

Form entry - test system: Human immunodeficiency virus 1; read-out: Ratio; compound: NCCCCC(N)C(=O)NCC(=O)Nc1ccc2c(c1)C(=O)c1ccc(NC(=O)CNC(=O)C(N)CCCCN)cc1C2=O (stereo unspecified) 0.72

Give the reported Ratio for C[C@H](NC(=O)C(N)CCCN)C(=O)Nc1ccc2c(c1)C(=O)c1ccc(NC(=O)[C@H](C)NC(=O)C(N)CCCN)cc1C2=O (stereo partly specified) (system: Human immunodeficiency virus 1). 0.58

Which measured Ratio belongs to NCCC(N)C(=O)NCC(=O)Nc1ccc2c(c1)C(=O)c1ccc(NC(=O)CNC(=O)C(N)CCN)cc1C2=O (stereo unspecified) , tested on Human immunodeficiency virus 1? 0.97

Entry C[C@H](NC(=O)C(N)CCN)C(=O)Nc1ccc2c(c1)C(=O)c1ccc(NC(=O)[C@H](C)NC(=O)C(N)CCN)cc1C2=O (stereo partly specified) , system Human immunodeficiency virus 1: what Ratio was measured? 0.5
